melting point: recorded values

[
  {
    "Molecule": "CN1CCN(c2ccc(-c3cnc4c(c3)N(S(=O)(=O)c3ccccc3Cl)CCN4)cn2)CC1",
    "melting point": "164 to 165 °C"
  },
  {
    "Molecule": "CC(C)c1ccc(C(=O)NC(C)c2sccc2Br)cc1 (stereo unspecified)",
    "melting point": "133 °C"
  },
  {
    "Molecule": "CC(=O)c1c(C)[nH]c(-c2ccc(Cl)cc2)c1N",
    "melting point": "205 to 208 °C"
  },
  {
    "Molecule": "CCCN1C(=O)CC(=O)N(c2ccccc2)c2cc(Cl)ccc21",
    "melting point": "192 to 194 °C"
  },
  {
    "Molecule": "N#Cc1c(-c2oc3ccccc3c2Cl)[nH]c(Cl)c1Cl",
    "melting point": "258 to 260 °C"
  }
]

Entry under test: `CC(=O)NC(=O)c1cc([N+](=O)[O-])cnc1C(Br)Br` . Its melting point was 168 °C

Entry under test: `Cc1ccc(C(=O)c2ccc(F)cc2)nc1` . Its melting point was 127 to 128 °C

Entry under test: N#CC(Cl)Cc1ccc(Cl)cc1C(=O)c1ccccc1Cl (stereo unspecified) . Its melting point was 102 to 103 °C

====

Measure Name: melting point

Below, each entry is followed by its recorded melting point result.
[
  {
    "Molecule": "CN(C)C(=O)c1cccnc1S(=O)(=O)Br",
    "Value": "108 to 111 °C"
  },
  {
    "Molecule": "CCCn1nc2c(N)nc3ncccc3c2c1CC(C)(C)C(N)=O",
    "Value": "254 to 257 °C"
  },
  {
    "Molecule": "O=C(C=Cc1cc(O)c(O)c([N+](=O)[O-])c1)c1ccccc1O",
    "Value": "231 to 234 °C"
  },
  {
    "Molecule": "COC(=O)c1ccc(C#Cc2ccc(OCC(O)CO)c(C34CC5CC(CC(C5)C3)C4)c2)cc1 (stereo not given)",
    "Value": "202 to 203 °C"
  }
]

Entry under test: `COc1ccc(-c2cc3ccc(C)cc3s2)cc1` . Its melting point was 198 to 200 °C

====

melting point: recorded values

Below, each entry is followed by its recorded melting point result.
[
  {
    "Compound": "O=C1NCC=Cc2cc[nH]c21",
    "Value": "155 to 160 °C"
  },
  {
    "Compound": "Cc1ccccc1C=Cc1ccccc1",
    "Value": "92 to 93 °C"
  },
  {
    "Compound": "CSC(Nc1ccc(NC(=O)OC(C)(C)C)cc1)=C(C#N)C#N",
    "Value": "190 °C"
  },
  {
    "Compound": "CN1CC(Cn2ccnc2-c2ccccc2)CC2c3cccc4[nH]cc(c34)CC21 (stereo unspecified)",
    "Value": "193 to 195 °C"
  },
  {
    "Compound": "O=[N+]([O-])c1cnc2cc3c(cc2c1-c1ccccc1Cl)CCC3",
    "Value": "175 to 176 °C"
  },
  {
    "Compound": "COCCOCc1ccc(-c2ccc(C(=O)Nc3ccc(OC)c(N4CCN(C)CC4)c3)cc2)c(C)c1",
    "Value": "147 to 148 °C"
  },
  {
    "Compound": "O=C(Nc1nc(-c2ccco2)c(C(=O)c2cc[nH]c2)s1)c1ccncc1",
    "Value": "259 to 260 °C"
  },
  {
    "Compound": "Nc1ccc2c(n1)CCO2",
    "Value": "129 to 131 °C"
  }
]

Entry under test: `CCn1nc(Cc2ccc(N)cc2)oc1=O` . Its melting point was 88 to 89 °C

Entry under test: C[Si](C)(C)C#Cc1ccc(C=CC2=CC(c3ccc(C#C[Si](C)(C)C)cc3)N(c3ccccc3)N2)cc1 (stereo unspecified) . Its melting point was 128 to 130 °C

Entry under test: `Cc1ccnc2c1nc(-c1cccnc1N)n2-c1ccc(CC(=O)Nc2ccccc2)cc1` . Its melting point was 236 to 238 °C

Entry under test: `Cc1nc(N2CCN(Cc3ccc(C(F)(F)F)cc3)C2=O)sc1C(N)=O` . Its melting point was 216 to 217 °C

Entry under test: CC(=O)SCC(Cc1ccccc1)C(=O)Nc1ccc(C(=O)OCc2ccccc2)cc1 (stereo unspecified) . Its melting point was 139 to 140 °C

Entry under test: `O=C1OCc2cc(C(F)(F)F)ccc21` . Its melting point was 71 to 72 °C

Entry under test: O=C1N(Cc2ccc(Cl)s2)c2ccccc2C12COc1ccc(Br)cc12 (stereo unspecified) . Its melting point was 140 to 142 °C

Origin of measurements: a melting point compilation (Tetko et al.; mined from patent text by program, amines drawn as free bases though some values may be those of a salt)
